# System: Escherichia coli TOP10
# PROCEDURE SUMMARY: shrunken log2 fold change of peptide-encoding DNA abundance (4.5 h post-induction vs induction); higher = less antimicrobial activity (less host growth inhibition)
# MEASUREMENT CONTEXT: time post-induction: 4.5 h; library: site-saturation at positions 5, 18, 19, 20
Values of shrunken log2 fold change greater than or equal to -0.08 map to fulfilled; values below map to not fulfilled.

Recorded results for 3 sequences are shown here.
>  <SEQUENCE CHAIN>
RRIRWRPPRLPRPRPRPWPLPRP

>  <QUALITATIVE LABEL>
not fulfilled

$$$$
>  <SEQUENCE CHAIN>
RRIRPRPPRLPRPRPRPPCDPRP

>  <QUALITATIVE LABEL>
fulfilled

$$$$
>  <SEQUENCE CHAIN>
RRIRLRPPRLPRPRPRPKMLPRP

>  <QUALITATIVE LABEL>
fulfilled

$$$$

Could you now consider this next sequence?
Is shrunken log2 fold change for RRIRLRPPRLPRPRPRPFSFPRP at or above -0.08?
not fulfilled

* * *

# Tested on: Escherichia coli TOP10
# PROCEDURE SUMMARY: shrunken log2 fold change of peptide-encoding DNA abundance (4.5 h post-induction vs induction); higher = less antimicrobial activity (less host growth inhibition)
# MEASUREMENT CONTEXT: time post-induction: 4.5 h; library: site-saturation at positions 5, 18, 19, 20
Catalogue of sequences with associated shrunken log2 fold change
I'd appreciate a reply containing only the number, no unit.

A selection of reference data follows.
>  <SEQUENCE CHAIN>
RRIRYRPPRLPRPRPRPFRNPRP

>  <MEASURED NUMBER>
-0.462

$$$$
>  <SEQUENCE CHAIN>
RRIRARPPRLPRPRPRPVVHPRP

>  <MEASURED NUMBER>
0.297

$$$$
>  <SEQUENCE CHAIN>
RRIRYRPPRLPRPRPRPTFRPRP

>  <MEASURED NUMBER>
-0.0396

$$$$
>  <SEQUENCE CHAIN>
RRIRFRPPRLPRPRPRPYASPRP

>  <MEASURED NUMBER>
-0.0651

$$$$
>  <SEQUENCE CHAIN>
RRIRARPPRLPRPRPRPDAVPRP

>  <MEASURED NUMBER>
0.683

$$$$

Attention now shifts to the item below.
Reported shrunken log2 fold change, sequence RRIRNRPPRLPRPRPRPPYTPRP : ____
-0.876

* * *

# Test system: Escherichia coli TOP10
# PROCEDURE SUMMARY: shrunken log2 fold change of peptide-encoding DNA abundance (4.5 h post-induction vs induction); higher = less antimicrobial activity (less host growth inhibition)
# MEASUREMENT CONTEXT: time post-induction: 4.5 h; library: site-saturation at positions 5, 18, 19, 20
VALUE KIND: shrunken log2 fold change
Give only the figure.

>  <SEQUENCE CHAIN>
RRIRCRPPRLPRPRPRPMTRPRP

>  <ASSAY TARGET>
Escherichia coli TOP10

>  <shrunken log2 fold change>
-0.275

$$$$
>  <SEQUENCE CHAIN>
RRIRWRPPRLPRPRPRPLPIPRP

>  <ASSAY TARGET>
Escherichia coli TOP10

>  <shrunken log2 fold change>
-0.0952

$$$$

Value lookup for shrunken log2 fold change; key = RRIRLRPPRLPRPRPRPATRPRP
0.145

Which shrunken log2 fold change is reported for this sequence? RRIRFRPPRLPRPRPRPDWAPRP
0.0526

Fill in the blank: the reported shrunken log2 fold change of RRIRHRPPRLPRPRPRPMYRPRP is ____.
-0.0948

Quick one: shrunken log2 fold change of RRIRWRPPRLPRPRPRPVYQPRP ?
-0.196

Given the entry RRIRDRPPRLPRPRPRPADSPRP , report its measured shrunken log2 fold change.
0.157

Given the sequence RRIRFRPPRLPRPRPRPAWWPRP , what is its reported shrunken log2 fold change?
0.273

Need shrunken log2 fold change, item RRIRFRPPRLPRPRPRPTNRPRP
-0.346

Please report the recorded shrunken log2 fold change for RRIRDRPPRLPRPRPRPDLMPRP .
0.043

Look up shrunken log2 fold change: RRIRFRPPRLPRPRPRPVQMPRP
0.189

* * *

# Tested on: Escherichia coli TOP10
# PROCEDURE SUMMARY: shrunken log2 fold change of peptide-encoding DNA abundance (4.5 h post-induction vs induction); higher = less antimicrobial activity (less host growth inhibition)
# MEASUREMENT CONTEXT: time post-induction: 4.5 h; library: site-saturation at positions 5, 18, 19, 20
Tag: y if measured shrunken log2 fold change is not below 0.2, n if it is.

Take a look at these entries with their results.
>  <SEQUENCE CHAIN>
RRIRKRPPRLPRPRPRPEMTPRP

>  <QUALITATIVE LABEL>
y

$$$$
>  <SEQUENCE CHAIN>
RRIRIRPPRLPRPRPRPEWNPRP

>  <QUALITATIVE LABEL>
n

$$$$
>  <SEQUENCE CHAIN>
RRIRMRPPRLPRPRPRPPLDPRP

>  <QUALITATIVE LABEL>
y

$$$$
>  <SEQUENCE CHAIN>
RRIRQRPPRLPRPRPRPAQKPRP

>  <QUALITATIVE LABEL>
n

$$$$
>  <SEQUENCE CHAIN>
RRIRHRPPRLPRPRPRPEPIPRP

>  <QUALITATIVE LABEL>
n

$$$$
>  <SEQUENCE CHAIN>
RRIRLRPPRLPRPRPRPKQAPRP

>  <QUALITATIVE LABEL>
n

$$$$
>  <SEQUENCE CHAIN>
RRIRIRPPRLPRPRPRPGAGPRP

>  <QUALITATIVE LABEL>
y

$$$$
>  <SEQUENCE CHAIN>
RRIRDRPPRLPRPRPRPPHSPRP

>  <QUALITATIVE LABEL>
y

$$$$
>  <SEQUENCE CHAIN>
RRIRDRPPRLPRPRPRPHVLPRP

>  <QUALITATIVE LABEL>
n

$$$$
>  <SEQUENCE CHAIN>
RRIRTRPPRLPRPRPRPRKRPRP

>  <QUALITATIVE LABEL>
n

$$$$

Given RRIRSRPPRLPRPRPRPVDYPRP , state whether its shrunken log2 fold change is at least 0.2.
n

Check this sequence for shrunken log2 fold change at or above 0.2: RRIRYRPPRLPRPRPRPMAPPRP
n

Reported shrunken log2 fold change at or above 0.2? RRIRVRPPRLPRPRPRPHARPRP
n

Determine whether measured shrunken log2 fold change meets or exceeds 0.2 for RRIRIRPPRLPRPRPRPNVEPRP
n

Check this sequence for shrunken log2 fold change at or above 0.2: RRIRCRPPRLPRPRPRPCIMPRP
n

* * *

# Test system: Escherichia coli TOP10;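 further: peptides expressed intracellularly from a pBAD plasmid library in pooled LB shake-flask culture, induced with 0.3% L-arabinose, DNA abundance read by NGS, three biological replicates, DESeq2 with apeglm shrinkage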
# PROCEDURE SUMMARY: shrunken log2 fold change of peptide-encoding DNA abundance (4.5 h post-induction vs induction); higher = less antimicrobial activity (less host growth inhibition)
# MEASUREMENT CONTEXT: time post-induction: 4.5 h; library: site-saturation at positions 5, 18, 19, 20
Rule: 1 (yes) for shrunken log2 fold change not less than -0.003, 0 (no) for anything less.

>  <SEQUENCE CHAIN>
RRIRPRPPRLPRPRPRPCLDPRP

>  <QUALITATIVE LABEL>
0 (no)

$$$$

# check: shrunken log2 fold change of RRIRFRPPRLPRPRPRPQYYPRP is greater than or equal to -0.003
0 (no)

Evaluate RRIRIRPPRLPRPRPRPWFFPRP : shrunken log2 fold change at minimum -0.003?
0 (no)

Is the recorded value of shrunken log2 fold change equal to or greater than -0.003 for this sequence? RRIRKRPPRLPRPRPRPDSSPRP
1 (yes)

State whether the measured shrunken log2 fold change reaches -0.003, counting equality as reaching it, for RRIRTRPPRLPRPRPRPMIPPRP
0 (no)

Textbook exercise: given the entry RRIRERPPRLPRPRPRPPWLPRP , state whether its shrunken log2 fold change is greater than or equal to -0.003.
1 (yes)

Hello, I need to know if RRIRERPPRLPRPRPRPCQRPRP has measured shrunken log2 fold change not below -0.003. Thanks!
1 (yes)

shrunken log2 fold change >= -0.003 for RRIRHRPPRLPRPRPRPEVLPRP ?
0 (no)

Check if shrunken log2 fold change >= -0.003 (inclusive). Item: RRIRRRPPRLPRPRPRPEPDPRP
1 (yes)

Form field: shrunken log2 fold change at least -0.003? Entry: RRIRARPPRLPRPRPRPFVAPRP
1 (yes)

API: above_or_equal(metric=shrunken log2 fold change, cutoff=-0.003) for item RRIRHRPPRLPRPRPRPTMGPRP
1 (yes)

hey, is shrunken log2 fold change for this one >= -0.003? RRIRTRPPRLPRPRPRPALWPRP
1 (yes)

Given the entry RRIRMRPPRLPRPRPRPFEKPRP , answer whether its shrunken log2 fold change meets or surpasses -0.003.
1 (yes)

Tell me whether shrunken log2 fold change is at least -0.003 here: RRIRERPPRLPRPRPRPWTTPRP
0 (no)

Exam item: decide whether the reported shrunken log2 fold change for RRIRTRPPRLPRPRPRPTHLPRP is at least -0.003.
0 (no)

Kindly determine if shrunken log2 fold change recorded for RRIRKRPPRLPRPRPRPPEHPRP is above or exactly -0.003.
1 (yes)

Has RRIRFRPPRLPRPRPRPLAQPRP a recorded shrunken log2 fold change greater than or equal to -0.003?
1 (yes)

Answer whether shrunken log2 fold change of RRIRARPPRLPRPRPRPQRHPRP is greater than or equal to -0.003.
1 (yes)
